protocol-description: Cmax in C57BL/6 mouse plasma at 10 mg/kg administered through oral gavage
Assay type: ADME, organism-based
Design: dose 10 mg/kg, route oral
Give Cmax for every item shown.

Can you look up the measured Cmax of `CN1C(=O)c2c(nn(Cc3ccc(C(F)(F)F)cc3)c2Nc2ccccc2)N2C1=N[C@@H]1CCC[C@@H]12` for me?
60 ng/mL

Any idea what Cmax was measured for `CN1C(=O)c2c(nn(Cc3ccc(-c4cccc(F)n4)cc3)c2Oc2ccc(F)cc2)N2C1=N[C@@H]1CCC[C@@H]12` ?
88 ng/mL

Param item = `CN1C(=O)c2c(nn(Cc3ccc(-c4ccccn4)cc3)c2Nc2ccccc2)N2C1=N[C@@H]1CCC[C@@H]12` ; retrieve measured Cmax.
48 ng/mL
